IC50 values for the compounds below.
target: KRAS G13D (Homo sapiens (Human), UniProt P01116+P62937, G13D); experiment: Ras-Raf (BRAF RBD) disruption / FRET / MOA assay, KRAS G13D; type: biochemical; conditions: read-out: IC50* KRAS G13D FRET data
Sequence (P01116-2 other isoform, or with tags, fused parts or gaps G13D, one chain of several): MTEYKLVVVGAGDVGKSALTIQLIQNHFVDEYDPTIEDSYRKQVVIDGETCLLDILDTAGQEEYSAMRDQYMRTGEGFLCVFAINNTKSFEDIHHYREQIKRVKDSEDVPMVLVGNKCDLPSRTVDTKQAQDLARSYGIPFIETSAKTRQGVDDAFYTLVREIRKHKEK

compound	system-name	IC50
CCn1c(-c2cccnc2[C@H](C)OC)c2c3cc(ccc31)-c1cccc(c1)C[C@H](NC(=O)[C@H](C(C)C)N(C)C(=O)[C@H]1CCN(C(=O)C#CC(C)(C)N3CCC(F)(F)C3)C1)C(=O)N1CCC[C@H](N1)C(=O)OCC(C)(C)C2 (atropisomer, axis not shown)	KRAS G13D (Homo sapiens (Human), UniProt P01116+P62937, G13D)	> 10000 nM
C=CC(=O)N1CC[C@H](C(=O)N(C)[C@H](C(=O)N[C@H]2Cc3cccc(c3)-c3ccc4c(c3)c(c(-c3cccnc3[C@H](C)OC)n4CC)CC(C)(C)COC(=O)[C@@H]3CCCN(N3)C2=O)C(C)C(F)(F)F)C1 (stereo partly drawn)	KRAS G13D (Homo sapiens (Human), UniProt P01116+P62937, G13D)	1000 to 10000 nM
CCn1c(-c2cccnc2[C@H](C)OC)c2c3cc(ccc31)-c1csc(n1)C[C@H](NC(=O)[C@H](C(C)C)N(C)C(=O)N(C)C1CN(C(=O)/C=C/CN(C)C)C1)C(=O)N1CCC[C@H](N1)C(=O)OCC(C)(C)C2 (atropisomer, axis not shown)	KRAS G13D (Homo sapiens (Human), UniProt P01116+P62937, G13D)	100 to 1000 nM

* * *

target: K-Ras G13C (Homo sapiens (Human), UniProt P01116+P62937, G13C); experiment: Ras-Raf (BRAF RBD) disruption / FRET / MOA assay, KRAS G13C; format: biochemical; conditions: KRAS G13C; Ras-Raf disruption/FRET/MOA assay; read-out: IC50* KRAS G13C FRET data
Sequence (P01116-2 other isoform, or with tags, fused parts or gaps G13C): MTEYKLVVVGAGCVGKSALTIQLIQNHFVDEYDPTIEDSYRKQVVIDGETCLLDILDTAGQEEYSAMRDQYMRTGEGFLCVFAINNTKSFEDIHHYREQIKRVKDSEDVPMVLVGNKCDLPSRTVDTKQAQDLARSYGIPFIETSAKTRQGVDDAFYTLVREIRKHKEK
Sequence (P62937 whole entry): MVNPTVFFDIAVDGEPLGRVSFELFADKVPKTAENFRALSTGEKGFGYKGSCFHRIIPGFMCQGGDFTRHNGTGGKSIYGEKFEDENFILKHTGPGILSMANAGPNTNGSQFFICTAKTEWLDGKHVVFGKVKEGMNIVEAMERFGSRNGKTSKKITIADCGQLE
pIC50: −log10 of the molar value.
Property: pIC50; scope: individual compounds

compound	pIC50
C=CS(=O)(=O)N1CCC(C(=O)N(C)[C@H](C(=O)N[C@H]2Cc3nc(cs3)-c3ccc4c(c3)c(c(-c3cncnc3)n4CC)CC(C)(C)COC(=O)[C@@H]3CCCN(N3)C2=O)C(C)C)C1 (single isomer, unassigned) [Example A170]	5.00 to 6.00
C=CC(=O)N1C[C@@H](C)N(C(=O)N(C)[C@H](C(=O)N[C@H]2Cc3nc(cs3)-c3ccc4c(c3)c(c(-c3cccnc3[C@H](C)OC)n4CC)CC(C)(C)COC(=O)[C@@H]3CCCN(N3)C2=O)C(C)C)[C@H](C)C1 (atropisomer, axis not shown) [Example A388]	7.00 to 8.00
C=CC(=O)N1CCC2(CCN(C(=O)N(C)[C@H](C(=O)N[C@H]3Cc4cccc(c4)-c4ccc5c(c4)c(c(-c4cccnc4[C@H](C)OC)n5CC)CC(C)(C)COC(=O)[C@@H]4CCCN(N4)C3=O)C(C)C)CC2)C1 (atropisomer, axis not shown) [Example A554]	7.00 to 8.00
C=CC(=O)N1CCC2(CC1)CCN(C(=O)N(C)[C@H](C(=O)N[C@H]1Cc3nc(cs3)-c3ccc4c(c3)c(c(-c3cccnc3[C@H](C)OC)n4CC)CC(C)(C)COC(=O)[C@@H]3CCCN(N3)C1=O)C(C)C)CC2 (atropisomer, axis not shown) [Example A697]	6.00 to 7.00
